# assay-summary: Residual lipid levels in rat liver and spleen (UPLC-MS)
# Assay type: in vivo
# experimental-setup: rats, 2 mpk, 48 h, assuming 300 g rat and 15 g liver
measured-parameter: % Lipid Remaining in liver, 48 h (%)

[
  {
    "compound": "CCCCCCCCCCCOC(=O)CCCCCN(CCO)CCCCCCCC(=O)OC(CCCCCCCC)CCCCCCCC",
    "measured-parameter": "% Lipid Remaining in liver, 48 h",
    "reading": 1.32
  },
  {
    "compound": "CCCCCCCCC(CC)OC(=O)CCCCCCCN(CCO)CCCCCCCC(=O)OC(CCCCCCCC)CCCCCCCC (stereo not drawn)",
    "measured-parameter": "% Lipid Remaining in liver, 48 h",
    "reading": 12.6
  },
  {
    "compound": "CCCCCC/C=C\\COC(=O)CCCCCCCN(CCO)CCCCCCCC(=O)OC(CCCCCCCC)CCCCCCCC",
    "measured-parameter": "% Lipid Remaining in liver, 48 h",
    "reading": 0.016
  }
]

----------
Entries and their measured % Remaining dose at 24 h follow.
# assay-summary: Lipid clearance: lipid level in mouse liver tissue (LC-MS/MS)
# Type: in vivo
# experimental-setup: Table 3E; mouse liver, 24 h
measured-parameter: % Remaining dose at 24 h (%)

[
  {
    "molecule": "CCCCCCCOC(=O)CCCCCCCCCN(CCO)CCCCCCCCCC(=O)OC(CCCCCC)CCCCCC",
    "measured-parameter": "% Remaining dose at 24 h",
    "reading": 0
  },
  {
    "molecule": "CCCCCCCCC(CCCCCCCC)OC(=O)CCCCCCCN(CCO)C(C)CCCCCCCCOC(=O)CCCCCCC (centres unmarked)",
    "measured-parameter": "% Remaining dose at 24 h",
    "reading": 0
  },
  {
    "molecule": "CCCCCCCCCC(C)(O)CCCCCCCCN(CCO)CCCCCCCC(=O)OC(CCCCCCCC)CCCCCCCC (centres unmarked)",
    "measured-parameter": "% Remaining dose at 24 h",
    "reading": 35.5
  },
  {
    "molecule": "CCCCCCCCCOC(=O)CCCCCCCN(CCO)CCCCCCCC(=O)OC(COCCCCCC)COCCCCCC",
    "measured-parameter": "% Remaining dose at 24 h",
    "reading": 0
  },
  {
    "molecule": "CCCCCCCCC(CCCCCCCC)OC(=O)CCCCCCCN(CCO)CCCCCCCC(=O)OCC(C)CCCCCCC (centres unmarked)",
    "measured-parameter": "% Remaining dose at 24 h",
    "reading": 0
  },
  {
    "molecule": "CCCCCCCCCOC(=O)C(C)CCCCCCN(CCO)CCCCCCCC(=O)OC(CCCCCCCC)CCCCCCCC (centres unmarked)",
    "measured-parameter": "% Remaining dose at 24 h",
    "reading": 26.2
  },
  {
    "molecule": "CCCCC/C=C\\C/C=C\\CCCCCCCCC(CCCCCCCC/C=C\\C/C=C\\CCCCC)OC(=O)CCCN(C)C [MC3, DLin-MC3-DMA, reference compound]",
    "measured-parameter": "% Remaining dose at 24 h",
    "reading": 79.7
  },
  {
    "molecule": "CCCCCCCCCC(=O)OC(C)CCCCCCN(CCO)CCCCCCCOC(=O)C(CCCCCCCC)CCCCCCCC (centres unmarked)",
    "measured-parameter": "% Remaining dose at 24 h",
    "reading": 12.7
  },
  {
    "molecule": "CCCCCCCCCOC(=O)CCCCCCCN(CCO)CCCCCCCC(=O)OC(CCC1CC1CCCC)CCC1CC1CCCC (centres unmarked)",
    "measured-parameter": "% Remaining dose at 24 h",
    "reading": 0
  },
  {
    "molecule": "CCCCCCCCCCCOC(=O)CCCCCN(CCO)CCCCCC(=O)OC(CCCCCCCCCC)CCCCCCCCCC",
    "measured-parameter": "% Remaining dose at 24 h",
    "reading": 29.3
  },
  {
    "molecule": "CCCCCCCCCC(=O)OC(C)CCCCCCN(CCO)CCCCCCCC(=O)OC(CCCCCCCC)CCCCCCCC (centres unmarked)",
    "measured-parameter": "% Remaining dose at 24 h",
    "reading": 14.7
  },
  {
    "molecule": "CCCCCCCCCOC(=O)C(C)CCCCCCN(CCO)CCCCCCCOC(=O)C(CCCCCCCC)CCCCCCCC (centres unmarked)",
    "measured-parameter": "% Remaining dose at 24 h",
    "reading": 19.4
  },
  {
    "molecule": "CCCCCCCCC(CCCCCCCC)OC(=O)CCCCCCCN(CCO)CCCCCCCC(=O)O[C@H](C)CCCCCCCC",
    "measured-parameter": "% Remaining dose at 24 h",
    "reading": 3.24
  },
  {
    "molecule": "CCCCCCCCC(CCCCCCCC)C(=O)OCCCCCCCN(CCO)C(C)CCCCCCCCOC(=O)CCCCCCC (centres unmarked)",
    "measured-parameter": "% Remaining dose at 24 h",
    "reading": 0
  }
]

Data origin: patent US12263248B2
